Give growth inhibition by drug alone for every item shown.
Test system: RIVA
test protocol: growth inhibition by drug alone (1 - RLU/untreated control) (fraction); higher = stronger inhibition
experimental parameters: 10 nM; time (day): 5; 177Lu-lilotomab satetraxetan 0 ug/ml
Lab note: jot the number down without any unit.

IN: I would be grateful if you could share the reported growth inhibition by drug alone for N#Cc1ccc(C(c2ccc(C#N)cc2)n2cncn2)cc1 .
OUT: -0.249

IN: Suppose we examine the molecule CC(=O)O[C@H]1C(=O)[C@@]2(C)[C@H]([C@H](OC(=O)c3ccccc3)[C@]3(O)C[C@H](OC(=O)[C@H](O)[C@@H](NC(=O)c4ccccc4)c4ccccc4)C(C)=C1C3(C)C)[C@]1(OC(C)=O)CO[C@@H]1C[C@@H]2O ; what growth inhibition by drug alone value has been reported?
OUT: 0.965

IN: # get_value(readout='growth inhibition by drug alone', item= CCCCCCCCc1ccc(CCC(N)(CO)CO)cc1 )
OUT: -0.0103

* * *

Would you kindly list growth inhibition by drug plus 177Lu-lilotomab satetraxetan for each of these compounds?
Test system: U-2932
test protocol: growth inhibition by drug plus 177Lu-lilotomab satetraxetan (1 - RLU/untreated control) (fraction); higher = stronger inhibition
experimental parameters: 1000 nM; time (day): 4; 177Lu-lilotomab satetraxetan 1 ug/ml
Structures can show the parent of a compound that is named as a salt.
A bare number is all that is needed in reply.

IN: // fetch U-2932 growth inhibition by drug plus 177Lu-lilotomab satetraxetan for C#Cc1cccc(Nc2ncnc3cc(OC)c(OCCCCCCC(=O)NO)cc23)c1
OUT: 0.977

IN: Given the entry CN(C)CCCN=c1c2ccccc2n(C)c2[nH]c(=O)n(C)c(=O)c12 , what growth inhibition by drug plus 177Lu-lilotomab satetraxetan was observed with U-2932?
OUT: 0.125

IN: Give U-2932 growth inhibition by drug plus 177Lu-lilotomab satetraxetan for Nc1ccc(C(=O)Nc2cccc(-c3nc(N4CCOCC4)c4oc5ncccc5c4n3)c2)cn1
OUT: 0.259

IN: Can you look up growth inhibition by drug plus 177Lu-lilotomab satetraxetan on U-2932 for Nc1nc(Cl)nc2c1ncn2[C@H]1C[C@H](O)[C@@H](CO)O1 ?
OUT: 0.971

IN: Can you look up growth inhibition by drug plus 177Lu-lilotomab satetraxetan on U-2932 for CN(C)CCOc1ccc(/C(=C(/CCCl)c2ccccc2)c2ccccc2)cc1 [Toremifene Citrate (Fareston, Acapodene)] ?
OUT: 0.116

IN: Request body: readout growth inhibition by drug plus 177Lu-lilotomab satetraxetan, system U-2932, query Cc1ccc(-n2nc(C(C)(C)C)cc2NC(=O)Nc2ccc(OCCN3CCOCC3)c3ccccc23)cc1 . Return the value.
OUT: 0.29

IN: What growth inhibition by drug plus 177Lu-lilotomab satetraxetan appears in the records for this compound with U-2932? CCC1=C[C@@H]2CN(C1)Cc1c([nH]c3ccccc13)[C@@](C(=O)OC)(c1cc3c(cc1OC)N(C)[C@H]1[C@@](O)(C(=O)OC)[C@H](OC(C)=O)[C@]4(CC)C=CCN5CC[C@]31[C@@H]54)C2
OUT: 0.98

* * *

Test system: U-2932
test protocol: growth inhibition by drug alone (1 - RLU/untreated control) (fraction); higher = stronger inhibition
experimental parameters: 10 nM; time (day): 4; 177Lu-lilotomab satetraxetan 0 ug/ml
Param threshold (0.09) applies to growth inhibition by drug alone; output Satisfied when value >= threshold, Not satisfied when value < threshold.

IN: Is reported growth inhibition by drug alone greater than or equal to 0.09 here: CC(C)C(=O)Nc1ccc([N+](=O)[O-])c(C(F)(F)F)c1 [Flutamide (Eulexin)]
OUT: Satisfied

IN: In plain terms: is recorded growth inhibition by drug alone at least 0.09 for CC(=O)O[C@]1(C(C)=O)CC[C@H]2[C@@H]3C[C@H](C)C4=CC(=O)CC[C@]4(C)[C@H]3CC[C@@]21C [Medroxyprogesterone acetate] ?
OUT: Satisfied

IN: # bool: growth inhibition by drug alone of O=C1C(Cl)=C(NCCN2CCOCC2)C(=O)c2ncccc21 >= 0.09
OUT: Satisfied

IN: Threshold query (growth inhibition by drug alone >= 0.09) on CNC(=O)c1cc(Oc2ccc(NC(=O)Nc3ccc(Cl)c(C(F)(F)F)c3)cc2)ccn1
OUT: Not satisfied

IN: Is growth inhibition by drug alone at least 0.09? Consider C[C@@H](Oc1cc(-n2cnc3ccc(CN4CCN(C)CC4)cc32)sc1C(N)=O)c1ccccc1C(F)(F)F
OUT: Satisfied

IN: Hi team, for CCc1cc(Nc2nccc(-c3c(-c4ccc(OC)c(C(=O)Nc5c(F)cccc5F)c4)nc4ccccn34)n2)c(OC)cc1N1CCC(N2CCN(S(C)(=O)=O)CC2)CC1 , is the recorded growth inhibition by drug alone at or above 0.09?
OUT: Not satisfied

IN: Does growth inhibition by drug alone meet or surpass 0.09 for CCc1ccc(CCOc2ccc(CC3SC(=O)NC3=O)cc2)nc1 (configuration not stated) ?
OUT: Not satisfied
